- Experimental System: Rap guanine nucleotide exchange factor 3 (Homo sapiens) (UniProt O95398)
- Sequence (O95398 whole entry, looked up): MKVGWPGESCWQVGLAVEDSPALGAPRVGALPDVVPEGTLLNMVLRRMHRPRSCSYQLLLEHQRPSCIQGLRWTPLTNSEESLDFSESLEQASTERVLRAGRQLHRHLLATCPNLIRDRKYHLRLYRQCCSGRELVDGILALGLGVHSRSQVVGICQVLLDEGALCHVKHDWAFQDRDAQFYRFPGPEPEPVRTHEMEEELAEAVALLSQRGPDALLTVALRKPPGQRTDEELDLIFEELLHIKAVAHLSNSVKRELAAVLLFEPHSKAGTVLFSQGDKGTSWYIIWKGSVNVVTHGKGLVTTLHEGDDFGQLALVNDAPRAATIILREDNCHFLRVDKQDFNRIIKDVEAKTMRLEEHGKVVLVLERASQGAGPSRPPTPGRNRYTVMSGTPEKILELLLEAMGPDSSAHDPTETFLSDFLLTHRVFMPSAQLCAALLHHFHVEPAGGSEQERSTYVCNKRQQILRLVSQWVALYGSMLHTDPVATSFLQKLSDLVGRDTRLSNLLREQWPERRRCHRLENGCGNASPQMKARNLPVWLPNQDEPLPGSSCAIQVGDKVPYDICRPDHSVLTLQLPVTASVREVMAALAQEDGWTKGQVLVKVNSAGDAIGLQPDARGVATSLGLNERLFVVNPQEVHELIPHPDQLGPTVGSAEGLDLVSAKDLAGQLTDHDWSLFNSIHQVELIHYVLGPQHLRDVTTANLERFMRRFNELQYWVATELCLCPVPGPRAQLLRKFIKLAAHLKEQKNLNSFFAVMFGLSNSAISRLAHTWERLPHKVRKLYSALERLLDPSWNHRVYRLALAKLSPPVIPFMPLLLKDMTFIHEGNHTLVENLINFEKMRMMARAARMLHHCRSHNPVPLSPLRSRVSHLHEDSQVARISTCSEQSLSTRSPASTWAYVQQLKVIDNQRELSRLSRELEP
- Assay Method Text: Confirmatory qHTS for agonist of cAMP-regulated guanine nucleotide exchange factor 3 (EPAC1) (AID 1645881);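 further: EPAC1 catalysed release of BODIPY-GDP from Rap1B seen as fluorescence loss; nearly all actives have a fitted effect of over 75% in size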
- Assay Setup: EPAC1 Rap1B BODIPY-GDP exchange fluorescence; series mostly up to 154 µM
Inconclusive results are not listed. Calls of active or inactive are those of the source. The call rests on the fitted dose curve; in most records, active means well fitted activation curve with a large enough effect; inconclusive means small, poorly fitted or top-dose-only effect; inactive means no such curve, though single readings can be large or run the other way.
Metric: outcome

INSERT INTO results (compound, data_value) VALUES
  ('CC(C(=O)NC1CC(C)(C)NC(C)(C)C1)c1ccc([N+](=O)[O-])cc1 (stereo not given)', 'inactive'),
  ('Cc1ccc(CN(C(=O)COc2cccc(Cl)c2)c2ccccn2)o1', 'inactive'),
  ('COc1ccc(C(Sc2ccccc2)c2ccccc2)cc1OC (stereo not given)', 'inactive'),
  ('Nc1ncnc2c1ncn2[C@@H]1O[C@H](C(=O)N[C@H]2c3ccccc3C[C@H]2OC=O)[C@@H](O)[C@H]1O', 'inactive'),
  ('Cc1cc2ccccn2c1C(=O)c1ccccc1F', 'inactive'),
  ('CCOc1cc(C(=O)Nc2ccc3c(c2)n(C)c(=O)c(=O)n3C)cc(OCC)c1OCC', 'inactive'),
  ('O=C(N[C@@H](Cc1c[nH]c2ccccc12)C(=O)O)OCC1c2ccccc2-c2ccccc21', 'inactive'),
  ('Cc1cc(C)c(C)c(S(=O)(=O)Nc2cccc(S(=O)(=O)Nc3ccccc3C(=O)O)c2)c1C', 'inactive'),
  ('O=c1c2ccccc2oc2ccc(Oc3ccccc3)cc12', 'inactive'),
  ('Fc1cccc(Cc2c(-c3ccccc3)nc3ccc(Cl)cn23)c1', 'inactive');

---

- Experimental System: Glucocorticoid receptor (Homo sapiens) (UniProt P04150)
- Sequence (P04150 whole entry, looked up): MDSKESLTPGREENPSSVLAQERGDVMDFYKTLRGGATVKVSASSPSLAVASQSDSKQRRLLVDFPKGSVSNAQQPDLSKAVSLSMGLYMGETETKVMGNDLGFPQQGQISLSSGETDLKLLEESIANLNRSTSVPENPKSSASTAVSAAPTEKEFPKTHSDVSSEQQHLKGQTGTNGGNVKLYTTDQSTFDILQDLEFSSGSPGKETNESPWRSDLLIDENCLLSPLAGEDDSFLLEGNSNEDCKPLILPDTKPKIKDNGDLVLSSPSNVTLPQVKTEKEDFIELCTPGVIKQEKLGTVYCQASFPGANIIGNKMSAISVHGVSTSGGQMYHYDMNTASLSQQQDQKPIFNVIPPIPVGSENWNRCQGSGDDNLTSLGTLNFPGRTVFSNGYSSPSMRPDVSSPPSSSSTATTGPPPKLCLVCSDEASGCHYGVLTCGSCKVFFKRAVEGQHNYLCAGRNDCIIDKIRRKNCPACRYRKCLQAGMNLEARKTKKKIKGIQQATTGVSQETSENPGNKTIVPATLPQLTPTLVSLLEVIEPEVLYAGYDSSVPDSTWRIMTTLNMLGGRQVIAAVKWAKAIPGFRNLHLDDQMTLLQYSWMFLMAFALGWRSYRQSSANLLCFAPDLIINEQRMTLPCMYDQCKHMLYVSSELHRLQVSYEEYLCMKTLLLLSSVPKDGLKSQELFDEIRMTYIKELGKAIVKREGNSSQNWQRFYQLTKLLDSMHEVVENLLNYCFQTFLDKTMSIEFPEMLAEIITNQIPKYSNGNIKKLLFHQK
- Assay Method Text: GR-GFP Redistribution (AID 450)
- Assay Setup: U2OS GR-GFP nuclear translocation, laser cytometry, 2 h
The source made the active and inactive calls.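 The calls were made as follows: active = compounds whose dose series gives a full or clear partial fitted curve of increased nuclear translocation; inconclusive = weak partial curve or effect only at the top dose; inactive = no dose-dependent translocation response.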
Outcomes: active, inactive

INSERT INTO measurements (compound_smiles, experimental_system, class_assignment) VALUES
  ('Nc1ncn([C@H]2O[C@@H](CO)[C@@H](O)[C@@H]2O)c(=O)n1', 'Glucocorticoid receptor (Homo sapiens) (UniProt P04150)', 'inactive'),
  ('C=CCSC[C@@H]1Nc2cc(Cl)c(S(N)(=O)=O)cc2S(=O)(=O)N1', 'Glucocorticoid receptor (Homo sapiens) (UniProt P04150)', 'inactive'),
  ('Cc1nccn1C[C@@H]1CCc2c(c3ccccc3n2C)C1=O', 'Glucocorticoid receptor (Homo sapiens) (UniProt P04150)', 'inactive'),
  ('C[C@@H]1[C@H](C)CC[C@@]2(C(=O)O[C@H]3O[C@@H](CO[C@H]4O[C@@H](CO)[C@@H](O[C@H]5O[C@@H](C)[C@@H](O)[C@@H](O)[C@@H]5O)[C@@H](O)[C@@H]4O)[C@@H](O)[C@@H](O)[C@@H]3O)CC[C@]3(C)C(=CC[C@H]4[C@@]5(C)C[C@@H](O)[C@@H](O)[C@](C)(CO)[C@@H]5CC[C@@]43C)[C@@H]12', 'Glucocorticoid receptor (Homo sapiens) (UniProt P04150)', 'inactive'),
  ('C[C@H](N)CCCC(C)(C)O', 'Glucocorticoid receptor (Homo sapiens) (UniProt P04150)', 'inactive'),
  ('CC(C)(C)NC[C@H](O)COc1cccc2c1C[C@@H](O)[C@@H](O)C2', 'Glucocorticoid receptor (Homo sapiens) (UniProt P04150)', 'inactive'),
  ('CC1=C(C(=O)O)N2C(=O)[C@@H](NC(=O)[C@@H](N)c3ccc(O)cc3)[C@@H]2SC1', 'Glucocorticoid receptor (Homo sapiens) (UniProt P04150)', 'inactive'),
  ('C[C@@H](CNC1CCCCC1)OC(=O)c1ccccc1', 'Glucocorticoid receptor (Homo sapiens) (UniProt P04150)', 'inactive'),
  ('CCCC(=O)Nc1ccc(OC[C@@H](O)CNC(C)C)c(C(C)=O)c1', 'Glucocorticoid receptor (Homo sapiens) (UniProt P04150)', 'inactive'),
  ('CN(C)c1ccc(O)c2c1C[C@H]1C[C@H]3[C@@H](N(C)C)C(=O)C(C(N)=O)=C(O)[C@]3(O)C(=O)C1=C2O', 'Glucocorticoid receptor (Homo sapiens) (UniProt P04150)', 'inactive'),
  ('Cc1ccccc1OC[C@H](O)CO', 'Glucocorticoid receptor (Homo sapiens) (UniProt P04150)', 'inactive'),
  ('CN[C@@H]1[C@H](O[C@H]2[C@@H](O[C@@H]3[C@@H](O)[C@@H](O)[C@@H](N=C(N)N)[C@@H](O)[C@@H]3N=C(N)N)O[C@@H](C)[C@]2(O)CO)O[C@H](CO)[C@@H](O)[C@@H]1O', 'Glucocorticoid receptor (Homo sapiens) (UniProt P04150)', 'inactive'),
  ('CN[C@H]1[C@@H](O)[C@@H](NC)[C@@H]2O[C@@]3(O)C(=O)C[C@@H](C)O[C@H]3O[C@H]2[C@H]1O', 'Glucocorticoid receptor (Homo sapiens) (UniProt P04150)', 'inactive'),
  ('C[C@@H]1C[C@H](OC(=O)[C@@H](O)c2ccccc2)CC(C)(C)N1C', 'Glucocorticoid receptor (Homo sapiens) (UniProt P04150)', 'inactive'),
  ('C[C@H](N[C@@H](C)COc1ccccc1)[C@H](O)c1ccc(O)cc1', 'Glucocorticoid receptor (Homo sapiens) (UniProt P04150)', 'inactive'),
  ('CCC(=O)OCC(=O)[C@@]1(OC(=O)CC)[C@H](C)C[C@@H]2[C@@H]3[C@H]([C@@H](O)C[C@@]21C)[C@]1(C)C=CC(=O)C=C1C[C@@H]3Cl', 'Glucocorticoid receptor (Homo sapiens) (UniProt P04150)', 'active'),
  ('CN1C(=O)C[C@H](c2ccccc2)C1=O', 'Glucocorticoid receptor (Homo sapiens) (UniProt P04150)', 'inactive'),
  ('C[C@]1(OC(=O)/C=C\c2ccccc2)C[C@@H](O)[C@@]2(O)C=CO[C@@H](O[C@H]3O[C@@H](CO)[C@@H](O)[C@@H](O)[C@@H]3O)[C@H]21', 'Glucocorticoid receptor (Homo sapiens) (UniProt P04150)', 'inactive'),
  ('CC(=O)N[C@@H](CC(=O)O)C(=O)O', 'Glucocorticoid receptor (Homo sapiens) (UniProt P04150)', 'inactive');

---

- System: TAB113
- Assay Method Text: qHTS profiling for inhibitors of Plasmodium falciparum proliferation (AID 504749); further: nearly all actives have a fitted effect of over 60% in size
- Assay Setup: P. falciparum in erythrocytes, SYBR Green DNA, 72 h; series mostly up to 12.8 µM
Inconclusive results are not listed. The source made the active and inactive calls. Calls come from the whole dose curve; as a rule, active = well fitted inhibition curve with a large enough effect; inconclusive = small, poorly fitted or top-dose-only effect; inactive = flat fitted curve, though single readings scatter. Bridge positions count the residues as written; N and C are the ends. Square brackets hold non-standard residues; d marks the D form. Peptide text beside a SMILES is read from it. * marks the point of attachment. Ileψ(thiazoline)Cys = CC[C@H](C)[C@H](N)C1=N[C@H](C(=O)*)CS1; d(aIle) = CC[C@H](C)[C@@H](N)C(=O)O; dOrn = NCCC[C@@H](N)C(=O)O
Outcomes: active, inactive

INSERT INTO measurements (compound, experimental_system, class_assignment) VALUES
  ('COc1ccc([C@@H]2CC(=O)c3c(O)cc(O[C@H]4O[C@@H](CO[C@H]5O[C@@H](C)[C@@H](O)[C@@H](O)[C@@H]5O)[C@@H](O)[C@@H](O)[C@@H]4O)cc3O2)cc1O', 'TAB113', 'inactive'),
  ('COc1c(O[C@H]2O[C@@H](CO)[C@@H](O)[C@@H](O)[C@@H]2O)cc2c(c1OC)-c1ccc(SC)c(=O)cc1[C@H](NC(C)=O)CC2', 'TAB113', 'inactive'),
  ('CN1CCC[C@@H](CC2c3ccccc3Sc3ccccc32)C1', 'TAB113', 'inactive'),
  ('COc1cc(C2c3cc4c(cc3C(O[C@@H]3OC5COC(c6cccs6)OC5C(O)C3O)C3COC(=O)C23)OCO4)cc(OC)c1O (stereo not given in full)', 'TAB113', 'active'),
  ('COc1cc(N[C@@H](C)CCCN)c2ncccc2c1', 'TAB113', 'active'),
  ('Clc1ccc(CC[C@H](Cn2ccnc2)Sc2c(Cl)cccc2Cl)cc1', 'TAB113', 'active'),
  ('CC[C@H](C)[C@H](N)C1=N[C@H](C(=O)N[C@@H](CC(C)C)C(=O)N[C@@H](CCC(=O)O)C(=O)N[C@@H](C(=O)N[C@H]2CCCCNC(=O)[C@@H](CC(N)=O)NC(=O)[C@@H](CC(=O)O)NC(=O)[C@@H](Cc3cnc[nH]3)NC(=O)[C@@H](Cc3ccccc3)NC(=O)[C@@H]([C@@H](C)CC)NC(=O)[C@@H](CCCN)NC2=O)[C@@H](C)CC)CS1 ({Ileψ(thiazoline)Cys}-LE[d(aIle)]K[dOrn][d(aIle)][dF][dH][dD][dN]; lactam 4-C)', 'TAB113', 'inactive'),
  ('C[C@H](C(=O)O)c1cccc(Oc2ccccc2)c1', 'TAB113', 'inactive'),
  ('C[C@@H](C(=O)O)c1ccc(C(=O)c2ccccc2)s1', 'TAB113', 'inactive'),
  ('O=C(N/N=C\c1ccc([N+](=O)[O-])o1)c1ccc(O)cc1', 'TAB113', 'active'),
  ('CC(=O)OCC(=O)[C@@]1(O)CC[C@@H]2[C@H]3CCC4=CC(=O)C=C[C@]4(C)[C@]3(F)[C@@H](O)C[C@@]21C', 'TAB113', 'inactive'),
  ('CC1CCC(C(C)C)C(=O)C1 (stereo not given)', 'TAB113', 'inactive'),
  ('CC1C2CCC3C4CC=C5CC(N(C)C)CC[C@@]5(C)C4CC[C@@]32CN1C (stereo not given in full)', 'TAB113', 'inactive'),
  ('Cc1ccsc1/C=C\C1=NCCCN1C', 'TAB113', 'inactive'),
  ('CNC[C@H](O)c1ccc(OC(=O)C(C)(C)C)c(OC(=O)C(C)(C)C)c1', 'TAB113', 'inactive'),
  ('CC(C)C1CCC(C(=O)NC(Cc2ccccc2)C(=O)O)CC1 (stereo not given)', 'TAB113', 'inactive'),
  ('NC[C@@H]1O[C@@H](O[C@H]2[C@H](O)[C@H](O[C@@H]3O[C@H](CO)[C@@H](O)[C@H](N)[C@@H]3O)[C@@H](N)C[C@H]2N)[C@H](N)C[C@@H]1O', 'TAB113', 'inactive'),
  ('CC=C(/C(=C/C)c1ccc(O)cc1)c1ccc(O)cc1', 'TAB113', 'inactive'),
  ('COCC(=O)Nc1c(I)c(C(=O)NC[C@@H](O)CO)c(I)c(C(=O)N(C)C[C@@H](O)CO)c1I', 'TAB113', 'inactive'),
  ('C[C@H](O)Cn1cnc2c1c(=O)n(C)c(=O)n2C', 'TAB113', 'inactive'),
  ('CC(=O)N[C@H](CC(C)C)C(=O)O', 'TAB113', 'inactive'),
  ('Clc1ccc([C@H](Cn2ccnc2)OCc2c(Cl)cccc2Cl)c(Cl)c1', 'TAB113', 'active'),
  ('C[C@H](N[C@@H](C)COc1ccccc1)[C@H](O)c1ccc(O)cc1', 'TAB113', 'inactive'),
  ('CN(C)CCOC(=O)[C@@H](c1ccccc1)C1(O)CCCC1', 'TAB113', 'inactive'),
  ('COc1ccc2c(c1)N(C[C@@H](C)CN(C)C)c1ccccc1S2', 'TAB113', 'inactive'),
  ('CC1(C)OC2CO[C@]3(COS(N)(=O)=O)OC(C)(C)OC3C2O1 (stereo not given in full)', 'TAB113', 'inactive'),
  ('CCC(=O)[C@@]1(C)[C@H](C)C[C@@H]2[C@@H]3CCC4=CC(=O)C=C[C@@]4(C)[C@H]3[C@H](O)C[C@]21C', 'TAB113', 'inactive'),
  ('C[C@@H]1C[C@H]2[C@@H]3C[C@H](F)C4=CC(=O)C=C[C@@]4(C)[C@]3(F)[C@H](O)C[C@]2(C)[C@@]1(O)C(=O)CO', 'TAB113', 'inactive'),
  ('CC1(C)S[C@@H]2[C@H](NC(=O)[C@@H](N)c3ccccc3)C(=O)N2[C@H]1C(=O)O[C@H]1OC(=O)c2ccccc21', 'TAB113', 'inactive'),
  ('CCOC(=O)[C@H](CCc1ccccc1)N[C@@H](C)C(=O)N1[C@H](C(=O)O)C[C@H]2CCC[C@@H]21', 'TAB113', 'inactive'),
  ('CC(=O)N[C@@H]1C(O)OC(CO)C(O)C1O (stereo not given in full)', 'TAB113', 'inactive'),
  ('Nc1nc2ncc(CNc3ccc(C(=O)NC(CCC(=O)O)C(=O)O)cc3)nc2c(=O)[nH]1 (stereo not given)', 'TAB113', 'inactive'),
  ('CC(C)NC[C@H]1CCc2cc(CO)c([N+](=O)[O-])cc2N1', 'TAB113', 'inactive'),
  ('CC(C)(C)NC[C@@H](O)COc1ccccc1C1CCCC1', 'TAB113', 'active'),
  ('COC(=O)N/N=C/C1=C[N+](=O)c2ccccc2[N+]1=O', 'TAB113', 'inactive');
